- tested.system: … (SEQ ID NO: 1)-HLA-A*02 complex (human)
- method.summary: SPR (BIAcore) or BLI (Octet) per Example 3, immobilised biotinylated pHLA, 25 C
Threshold-based label: t1/2 under 10 h gives fulfilled, t1/2 not under 10 h gives not fulfilled.

{"columns": ["binder", "cat"],
 "data": [
  ["ImmTAC molecule a28b60 (TCR-anti-CD3 fusion) (TCR, part only; not given: anti-CD3 scFv, linker, constant regions, not shown: a dimerising Fc or GST) TCR alpha, part: GDAKTTQPNSMESNEEEPVHLPCNHSTISGTDYIHWYRQLPSQGPEYVIHGLTSNVNNRMASLAIAEDRKSSTLILHRATLRDAAVYYCILILGHSRAGNYIATFGKGTKLSVIP TCR beta, part: DGGITQSPKYLFRKEGQNVTLSCEQNLNHDAMYWYRQDPGQGLRLIYYSQIMGDEQKGDIAEGYSVSREKKESFPLTVTSAQKNPTAFYLCASSWWTGGASEISFGPGTRLTVT", "fulfilled"],
  ["ImmTAC molecule a79b74 (TCR-anti-CD3 fusion) (TCR, part only; not given: anti-CD3 scFv, linker, constant regions, part only) TCR alpha, part: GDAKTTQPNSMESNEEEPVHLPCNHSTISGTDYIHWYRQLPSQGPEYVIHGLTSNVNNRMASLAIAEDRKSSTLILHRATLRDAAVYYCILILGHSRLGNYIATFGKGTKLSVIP TCR beta, part: DGGITQSPKYLFRKEGQNVTLSCEQNLNHDAMYWYRQDPGQGLRLIYYSQIMGDEQKGDIAEGYSVSREKKESFPLTVTSAQKNPTAFYLCASSWWTGGASPIRFGPGTRLTVT", "not fulfilled"]
]}

Threshold test, t1/2 < 10 h: ImmTAC molecule a79b69 (TCR-anti-CD3 fusion) (TCR, part only; not given: anti-CD3 scFv, linker, constant regions, not shown: a dimerising Fc or GST) TCR alpha, part: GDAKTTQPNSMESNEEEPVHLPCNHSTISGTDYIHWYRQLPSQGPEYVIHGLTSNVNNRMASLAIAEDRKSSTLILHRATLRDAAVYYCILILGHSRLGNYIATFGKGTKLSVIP TCR beta, part: DGGITQSPKYLFRKEGQNVTLSCEQNLNHDAMYWYRQDPGQGLRLIYYSQIMGDEQKGDIAEGYSVSREKKESFPLTVTSAQKNPTAFYLCASSWWTGGSAEIRFGPGTRLTVT
not fulfilled

Threshold test, t1/2 < 10 h: ImmTAC molecule a79b67 (TCR-anti-CD3 fusion) (TCR, part only; not given: anti-CD3 scFv, linker, constant regions, not shown: a dimerising Fc or GST) TCR alpha, part: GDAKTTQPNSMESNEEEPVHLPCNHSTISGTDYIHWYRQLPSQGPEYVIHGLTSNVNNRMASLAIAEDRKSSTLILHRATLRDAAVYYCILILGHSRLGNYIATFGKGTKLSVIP TCR beta, part: DGGITQSPKYLFRKEGQNVTLSCEQNLNHDAMYWYRQDPGQGLRLIYYSQIMGDEQKGDIAEGYSVSREKKESFPLTVTSAQKNPTAFYLCASSWWTSGSAPIRFGPGTRLTVT
not fulfilled

Threshold test, t1/2 < 10 h: ImmTAC molecule a79b71 (TCR-anti-CD3 fusion) (TCR, part only; not given: anti-CD3 scFv, linker, constant regions, not shown: a dimerising Fc or GST) TCR alpha, part: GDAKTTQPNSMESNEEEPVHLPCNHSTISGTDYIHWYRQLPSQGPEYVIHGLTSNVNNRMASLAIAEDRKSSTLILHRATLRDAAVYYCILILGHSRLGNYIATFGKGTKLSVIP TCR beta, part: DGGITQSPKYLFRKEGQNVTLSCEQNLNHDAMYWYRQDPGQGLRLIYYSQIMGDEQKGDIAEGYSVSREKKESFPLTVTSAQKNPTAFYLCASSWWTGGSAPIYFGPGTRLTVT
not fulfilled
